- Experimental system: CDK8/Cyclin C (Homo sapiens) (UniProt P49336+P24863)
- Method: Inhibition of recombinant full length His tagged human CDK8/Cyclin C expressed in Baculovirus at 200 nM incubated for 60 mins in presence of ATP by ADP-Glo kinase assay
Binary classification by inhibition, with 50% as an inclusive lower bound for criterion met; all other cases are criterion not met.

# example entries with known answers
Is inhibition at least 50%? Consider O=c1cc(-c2ccccc2)oc2cc(-c3ccncc3)cc(O)c12
criterion not met

Could you please find out whether CCc1cccc(NC(=O)c2cncc(-c3ccc(C(=O)N4CCNCC4)cc3)c2)c1 has inhibition that meets 50% or exceeds it?
criterion met

For this compound, is measured inhibition 50% or higher? CN(C)Cc1ccc(-c2cc(O)c3c(=O)cc(-c4ccccc4)oc3c2)cc1
criterion not met

Dear colleague, could you confirm whether COc1cc(OC)c(-c2cc(O)c3c(=O)cc(-c4ccccc4)oc3c2)c(OC)c1 has inhibition at or above 50%?
criterion met

Is inhibition at least 50%? Consider Cc1ccccc1NC(=O)c1cncc(-c2ccc(C(=O)N3CCNCC3)cc2)c1
criterion met

Continuing:
Please tell me: is the compound O=C(Nc1ccccc1)c1cc(O)cc(-c2ccc(C(=O)N3CCNCC3)cc2)c1 at or over 50% in terms of inhibition?
criterion not met

Confirm if inhibition reported for the compound O=C(Nc1cccc(F)c1)c1cc(O)cc(-c2ccc(C(=O)N3CCNCC3)cc2)c1 is 50% or above.
criterion not met

# bool: inhibition of O=C(Nc1ccc(F)cc1)c1cncc(-c2ccc(C(=O)N3CCNCC3)cc2)c1 >= 50%
criterion met

Would you say O=C(Nc1ccc(Cl)cc1)c1cncc(-c2ccc(C(=O)N3CCNCC3)cc2)c1 shows inhibition at minimum 50%?
criterion not met

Reported inhibition at or above 50%? CCN1CCN(c2ccc(-c3cc(O)c4c(=O)cc(-c5ccccc5)oc4c3)cc2)CC1
criterion not met

* * *

- Experimental system: CDK8/Cyclin C (Homo sapiens, UniProt P49336)
- Sequence (P49336 whole entry): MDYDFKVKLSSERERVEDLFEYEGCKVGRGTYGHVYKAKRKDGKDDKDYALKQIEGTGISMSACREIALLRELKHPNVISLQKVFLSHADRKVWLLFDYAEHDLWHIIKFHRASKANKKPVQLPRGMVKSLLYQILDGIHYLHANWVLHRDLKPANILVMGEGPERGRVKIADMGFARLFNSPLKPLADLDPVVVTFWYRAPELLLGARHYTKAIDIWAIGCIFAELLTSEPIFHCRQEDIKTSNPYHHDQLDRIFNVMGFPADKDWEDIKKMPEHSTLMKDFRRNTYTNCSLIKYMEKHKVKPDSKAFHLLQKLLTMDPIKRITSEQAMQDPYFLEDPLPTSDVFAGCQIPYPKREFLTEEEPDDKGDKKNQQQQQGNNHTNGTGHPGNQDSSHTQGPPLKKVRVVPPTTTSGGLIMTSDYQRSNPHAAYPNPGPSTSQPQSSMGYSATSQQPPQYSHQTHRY
- Sequence (P24863 whole entry, further chain): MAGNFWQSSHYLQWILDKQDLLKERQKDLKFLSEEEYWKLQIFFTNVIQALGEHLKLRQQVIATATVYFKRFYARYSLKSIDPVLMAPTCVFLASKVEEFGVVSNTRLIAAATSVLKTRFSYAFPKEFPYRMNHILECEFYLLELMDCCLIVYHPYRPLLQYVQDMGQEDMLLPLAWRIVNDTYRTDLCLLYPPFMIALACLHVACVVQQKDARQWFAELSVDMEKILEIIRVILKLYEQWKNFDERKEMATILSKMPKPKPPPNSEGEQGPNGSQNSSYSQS
- Method: Inhibition of recombinant full length His tagged human CDK8/Cyclin C expressed in Baculovirus incubated for 60 mins in presence of ATP by ADP-Glo kinase assay
Metric name: IC50 (nM)
Express it in nM; write the number only.

Illustrative cases are given below, each with its answer.
Record O=c1cc(-c2ccccc2)oc2cc(-c3ccc(CN4CCNCC4)cc3)cc(O)c12 . Reported IC50: 144

Entry O=C(Nc1ccccc1)c1cc(-c2ccc(C(=O)N3CCNCC3)cc2)ccc1O — recorded IC50 = 210

Sure, the documented IC50 for O=C(Nc1ccccc1)c1cc(-c2ccc(C(=O)N3CCNCC3)cc2)ccn1 is 87

Next:
Data point: Nc1ccccc1NC(=O)c1cncc(-c2ccc(C(=O)N3CCNCC3)cc2)c1 ; IC50 = 947

* * *

- Method: AUC (0 to infinity) in Sprague-Dawley rat at 5 mg/kg, iv measured for 3 to 1440 mins by HPLC analysis
- Assay type: ADME, organism-based
- Experimental conditions: in vivo
Metric name: AUC(0-inf) (ng·h/mL)
Record the value in ng·h/mL, omitting the unit from your answer.

AUC(0-inf) recorded for this compound, CCc1ccccc1NC(=O)c1cncc(-c2ccc(C(=O)N3CCNCC3)cc2)c1 , is 642

* * *

# IC50 values compiled below
- Experimental system: CDK8/Cyclin C (Homo sapiens, UniProt P49336)
- Method: Inhibition of recombinant full length His tagged human CDK8/Cyclin C expressed in Baculovirus incubated for 60 mins in presence of ATP by ADP-Glo kinase assay
Expressed in nM, but write only the number.

# compound Nc1ccc(NC(=O)c2cncc(-c3ccc(C(=O)N4CCNCC4)cc3)c2)cc1 ; its IC50 = 3650

Others:
For Cc1cccc(NC(=O)c2cncc(-c3ccc(C(=O)N4CCNCC4)cc3)c2)c1 the compound record lists IC50 as 75

Entry CC1CCc2nc(N)c(C#N)c(-c3cccnc3)c2C1 (centres undefined) , IC50 reported as 211

Looking up CC(=O)Nc1ccc(NC(=O)c2cncc(-c3ccc(C(=O)N4CCNCC4)cc3)c2)cc1 , I see its IC50 listed as 1050
